assay: In vivo pharmacokinetics in mice; conditions: mouse, iv, 3 mg/kg
endpoint.name: clearance (mL/min/kg)

>  <structure.smiles.string>
CCCCNc1ncc2c(-c3ccc(F)cc3)nn(C[C@H]3CC[C@H](N)CC3)c2n1

>  <test.result>
19.5

$$$$
